# EXPERIMENTAL TARGET: Hmlalpha2 (UniProt P0CY09)
# Sequence: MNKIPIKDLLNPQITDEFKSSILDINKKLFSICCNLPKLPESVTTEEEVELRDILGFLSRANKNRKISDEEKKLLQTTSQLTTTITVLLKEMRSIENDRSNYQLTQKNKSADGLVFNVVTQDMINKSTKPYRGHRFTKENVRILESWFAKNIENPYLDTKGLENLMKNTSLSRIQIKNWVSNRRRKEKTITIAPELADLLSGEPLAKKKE
# PROCEDURE DETAILS: PBM E-score (8-mer binding enrichment) (E-score (-0.5 to 0.5)); higher = stronger / more preferred TF binding
# CONDITION NOTES: protein concentration: 200 nM; construct: GST-full length
Over roughly 33,000 sequences, “E-score (-0.5 to 0.5)” has its median near -0.04; the highest 2% begin near 0.36. The list comes from a sample in which the highest values are over-represented; it also holds close analogues and randomly drawn sequences.
Recorded measurements of PBM E-score, one per entry

Guide cases for PBM E-score, answers given:
SEQ TEXT | MEASURE NAME | ENDPOINT VALUE
ACAATTCT | PBM E-score | 0.156
ACTACACC | PBM E-score | 0.166
ATAAACAC | PBM E-score | 0.365
ACGTACAG | PBM E-score | 0.0878
ATTTACAG | PBM E-score | 0.269

Name the reported PBM E-score value associated with the sequence CGTTTGAC
0.0383

Name the reported PBM E-score value associated with the sequence ATCAAAAA
0.0225

Name the reported PBM E-score value associated with the sequence CGAAACCC
-0.121

---

# EXPERIMENTAL TARGET: Hmlalpha2 (UniProt P0CY09)
# Sequence: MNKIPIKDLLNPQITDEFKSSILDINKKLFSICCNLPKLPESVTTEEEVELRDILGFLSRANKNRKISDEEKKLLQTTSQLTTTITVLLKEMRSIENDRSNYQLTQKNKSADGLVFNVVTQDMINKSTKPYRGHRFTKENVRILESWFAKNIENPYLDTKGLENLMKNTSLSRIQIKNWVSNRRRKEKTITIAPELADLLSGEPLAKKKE
# PROCEDURE DETAILS: PBM E-score (8-mer binding enrichment) (E-score (-0.5 to 0.5)); higher = stronger / more preferred TF binding
# CONDITION NOTES: protein concentration: 200 nM; construct: GST-full length
In all, about 33,000 sequences were measured (“E-score (-0.5 to 0.5)”: median about -0.04, highest 2% from about 0.36 on). Only a selection was taken, and the highest values are over-represented in it overall.
Recorded measurements of PBM E-score, one per entry

SEQ TEXT | PBM E-score
GGACTAGA | -0.227
ACATTACA | 0.449
CAACTACA | 0.316
ACACGCTG | 0.355

Name the reported PBM E-score value associated with the sequence GCACGCTA
-0.192

Name the reported PBM E-score value associated with the sequence GAACATGC
0.272

Name the reported PBM E-score value associated with the sequence TAACGCCA
0.0809

Name the reported PBM E-score value associated with the sequence ACACATGA
0.304

Name the reported PBM E-score value associated with the sequence ACACGCTA
0.414

Name the reported PBM E-score value associated with the sequence ACATTACT
0.303

Name the reported PBM E-score value associated with the sequence AAACGGTG
0.0442

Name the reported PBM E-score value associated with the sequence CCATTACC
-0.0103

Name the reported PBM E-score value associated with the sequence GCATTACC
8e-05

Name the reported PBM E-score value associated with the sequence ACACATGT
0.394

Values compiled from the supplement of paper PMC3334620.
